- experiment description: Phase 1 single-dose renal impairment study C21010, plasma PK
- Assay type: in vivo, human
- settings: human, plasma, po, 200 mg, AUCinf, geometric LSM, mild chronic renal impairment (CLcr ≥60–89 mL/min), single oral 200 mg dose
measured endpoint: AUC(0-inf) (ng·h/mL)
Kindly answer with a numeric value in ng·h/mL, unit omitted.

Query :: Data request, read-out AUC(0-inf), for CNC(=O)c1ccc2cc([C@@]3(O)CCn4cncc43)ccc2c1
Result :: 11300

* * *

- experiment description: Phase 1 renal impairment study C21010, urine PK
- Format: in vivo, human
- settings: human, urine, oral, 200 mg, CLrenal, severe chronic RI, geometric mean
measured endpoint: CL renal (mL/min)
Kindly answer with a numeric value in mL/min, unit omitted.

Query :: Data request, read-out CL renal, for CNC(=O)c1ccc2cc([C@@]3(O)CCn4cncc43)ccc2c1
Result :: 25.8
